Several publications report IC50 on UniProtKB P10632; those values are gathered here.

# count of solved cases: 6
INSERT INTO assay_data (molecule, recorded_measurement) VALUES
  ('COc1cc2c(NC3CCN(C(C)C)CC3)nc(N3CCC3)nc2cc1OCCCN1CCCC1', '> 100 µM'),
  ('C[C@@H]1CCc2c(Oc3c(Cl)cc(-n4nc(C#N)c(=O)[nH]c4=O)cc3Cl)n[nH]c(=O)c21 (single isomer, unassigned)', '3.08 µM'),
  ('Cc1cnc(-c2cc(OC(C)C(C)O)cc(C(=O)N[C@H](C)c3cnc(C(F)(F)F)nc3)c2)s1 (single isomer, unassigned)', '> 20 µM'),
  ('COc1cc2c(NC3COC3)nc(N3CCC(F)(F)CC3)nc2cc1OCCCN1CCCC1', '16 µM'),
  ('COc1cc2c(NC3CCS(=O)(=O)CC3)nc(N3CCC(F)(F)CC3)nc2cc1C#CCN1CCCC1', '43.1 µM'),
  ('NC(=O)c1nc(-c2c(Cl)cccc2Cl)oc1Nc1ccc(C(=O)N2CCS(=O)(=O)CC2)cc1', '> 30 µM');

Ask: Lab note: need IC50 with UniProtKB P10632 for entry COCCN1CCC(Nc2nc(N3CCC(F)(F)CC3)nc3cc(OCCCN4CCCC4)c(OC)cc23)CC1 , please look it up.
Reply: > 100 µM

Ask: Recorded IC50 for [2H]C([2H])(Oc1cccc(O)c1C=O)c1cncnc1-c1ccnn1C(C)C with UniProtKB P10632, please?
Reply: 25.2 µM

Ask: What IC50 appears in the records for this molecule with UniProtKB P10632? CN1C(=O)N(c2cccc(C(F)(F)F)c2)C2=C(C(=O)CC2)[C@H]1c1ccc(C#N)cc1-c1ccc(=O)n(C)c1
Reply: > 50 µM

Ask: Provide the documented IC50 with UniProtKB P10632 as the system for COc1cc2c(NC3CCS(=O)(=O)CC3)nc(N3CCCC3)nc2cc1OCCCN1CCCC1
Reply: 23.4 µM

Ask: Find IC50 (UniProtKB P10632) for the entry COc1ccc(-c2ccc(C(C)(C)NC(=O)c3cnc(-c4cccnn4)nc3O)cn2)cc1
Reply: 49.5 µM

Ask: Can you look up IC50 on UniProtKB P10632 for CCC(=O)c1ccc(Cl)cc1-c1cc(=O)n([C@@H](Cc2ccccc2)C(=O)Nc2ccc(C(=O)O)cc2)nc1OC ?
Reply: ~30 µM

----------
// merged dataset of IC50 values, system = Cytochrome P450 2C8 (Homo sapiens), multiple refs

Here are 8 molecules together with their reported answers.
INSERT INTO measurements (given_smiles, study_target, observed_property, recorded_measurement) VALUES
  ('COc1cc2nccc(Oc3ccc(NC(=O)c4cc5c(n(-c6ccccc6)c4=O)CC(C)(C)CC5=O)nc3)c2cc1OC', 'Cytochrome P450 2C8 (Homo sapiens)', 'IC50', '> 10 µM'),
  ('N#Cc1ccc([C@H]2NC(=O)N(c3cccc(C(F)(F)F)c3)C3=C2C(=O)NCC3)cc1', 'Cytochrome P450 2C8 (Homo sapiens)', 'IC50', '> 50 µM'),
  ('COc1cc2c(NC3CCS(=O)(=O)CC3)nc(N3CCS(=O)(=O)CC3)nc2cc1OCCCN1CCCC1', 'Cytochrome P450 2C8 (Homo sapiens)', 'IC50', '> 100 µM'),
  ('COc1cc2c(NC3CCOCC3)nc(N3CCN(C)CC3)nc2cc1OCCCN1CCCC1', 'Cytochrome P450 2C8 (Homo sapiens)', 'IC50', '> 100 µM'),
  ('COc1cc2c(N[C@@H]3CCCNC3)nc(N3CCCC3)nc2cc1OCCCN1CCCC1', 'Cytochrome P450 2C8 (Homo sapiens)', 'IC50', '> 100 µM'),
  ('C=CC(=O)N1CC(n2c(=O)n(-c3ccc(Oc4ccccc4)cc3)c3c(N)ncnc32)C1', 'Cytochrome P450 2C8 (Homo sapiens)', 'IC50', '> 10 µM'),
  ('COc1cc2c(NC3CCOCC3)nc(N3CCOCC3)nc2cc1OCCCN1CCCC1', 'Cytochrome P450 2C8 (Homo sapiens)', 'IC50', '> 100 µM'),
  ('COc1cc2c(NC3CCNCC3)nc(N3CCC(F)(F)CC3)nc2cc1OCCCN1CCCC1', 'Cytochrome P450 2C8 (Homo sapiens)', 'IC50', '> 100 µM');

Ask: Lab request: please report IC50 under test system Cytochrome P450 2C8 (Homo sapiens) for CN1C(=O)N(c2cccc(C(F)(F)F)c2)C2=C(C(=O)CC2)[C@H]1c1ccc(C#N)cc1CNC(C)(C)C
Reply: > 50 µM
